assay: in vivo; settings: CF-1, mouse, ip, Brain Tmax
measurementType: Tmax (min)

CCCC(CCC)C(=O)O [VPA, sodium valproate]: 15

====

Tmax: recorded values
test: in vivo; conditions: CF-1, mouse, ip
measurementType: Tmax (min)

NC(=O)N1c2ccccc2C=Cc2ccccc21 [CBZ, carbamazepine]: 15
CCCC(CCC)C(=O)O [VPA, sodium valproate]: 30

====

assay: in vivo; conditions: Sprague Dawley, rat, ip, Plasma t1/2
half-life: recorded values
measurementType: half-life (h)

CC[C@@H](C(N)=O)N1CCCC1=O [LEV, levetiracetam]: 6.16
NC(=O)N1c2ccccc2C=Cc2ccccc21 [CBZ, carbamazepine]: 0.82

====

half-life: recorded values
test: in vivo; settings: CF-1, mouse, ip, Plasma t1/2
measurementType: half-life (h)

NC(=O)N1c2ccccc2C=Cc2ccccc21 [CBZ, carbamazepine]: 1.3
CC[C@@H](C(N)=O)N1CCCC1=O [LEV, levetiracetam]: 1.72
CCCC(CCC)C(=O)O [VPA, sodium valproate]: 0.73

====

half-life: recorded values
experiment: in vivo; conditions: CF-1, mouse, ip, Brain t1/2
measurementType: half-life (min)

NC(=O)N1c2ccccc2C=Cc2ccccc21 [CBZ, carbamazepine]: 31.2
CCCC(CCC)C(=O)O [VPA, sodium valproate]: 55.6

====

test: Brain pharmacokinetics in mice; conditions: CF-1, mouse, in vivo, ip
measurementType: Tmax (min)

CN1C(=O)CC(=O)N(c2ccccc2)c2cc(Cl)ccc21: 15

====

assay: Plasma pharmacokinetics in rats; settings: Sprague Dawley, rat, in vivo, ip
measurementType: Tmax

CN1C(=O)CC(=O)N(c2ccccc2)c2cc(Cl)ccc21: 15 min

====

experiment: in vivo; details: Sprague Dawley, rat, ip
measurementType: Tmax (min)

NC(=O)N1c2ccccc2C=Cc2ccccc21 [CBZ, carbamazepine]: 15

====

experiment: in vivo; settings: Sprague Dawley, rat, ip, Plasma Tmax
measurementType: Tmax (min)

CCCC(CCC)C(=O)O [VPA, sodium valproate]: 15

====

Tmax: recorded values
test: in vivo; details: CF-1, mouse, ip
measurementType: Tmax

CC[C@@H](C(N)=O)N1CCCC1=O: 15 min
NC(=O)N1c2ccccc2C=Cc2ccccc21 [CBZ, carbamazepine]: 15 min
CCCC(CCC)C(=O)O [VPA, sodium valproate]: 30 min

====

test: in vivo; settings: Sprague Dawley, rat, ip
measurementType: Tmax (min)

NC(=O)N1c2ccccc2C=Cc2ccccc21 [CBZ, carbamazepine]: 15

====

test: Brain pharmacokinetics in rats; conditions: Sprague Dawley, rat, in vivo, ip
measurementType: Tmax (min)

CN1C(=O)CC(=O)N(c2ccccc2)c2cc(Cl)ccc21: 15
